System: RXF 393 renal
assay_overview: NCI-60 one-dose screen, 48 h
conditions_used: 10 µM unless noted
This is part of a sample that, as a whole, favours compounds with a hit. Of some 83,000 tested, about 20% had one in any assay. Activity calls are given as the source filed them. Rule for the calls: active = growth percent below 10; inactive = the rest.
Lab note: assign the record to one of active, inactive

[Q] For Cc1cccc(-c2nnc(SCC(=O)Nc3ncc(Cc4ccccc4)s3)n2N2C(=O)CSC2=S)c1 , which call appears in the assay record?
[A] inactive

[Q] Dear all, I need the recorded test outcome for O=C(NCc1cccnc1)/C(=C\c1ccc(Br)cc1)S(=O)(=O)c1ccccc1 , thank you.
[A] active

[Q] I'd appreciate the recorded outcome for COc1ccccc1/C=C1\COc2ccc(O)c(O)c2C1=O from this test.
[A] inactive

[Q] Identify the outcome logged in this assay for the molecule shown: Cc1cc(N2CCN(CC(=O)Nc3ccc4c(ccn4Cc4ccccc4)c3)CC2)nc(N2CCCCCC2)n1
[A] inactive

[Q] For CCCCCCNC(=O)Oc1ccc(/C(=C(/CC)Cc2ccccc2)c2ccc(OCCCN(C)C)cc2)cc1 , which call appears in the assay record?
[A] inactive

[Q] Fill in: this test's call for CNC(=O)c1cc(Oc2ccc3nc(NC(=O)Nc4ccc(C(F)(F)F)cc4)sc3c2)ccn1 is ___
[A] inactive

[Q] Give the logged outcome of this assay for the following molecule: Fc1ccc(NC(c2ccc(F)cc2)C2CCN(CCCCc3ccccc3)CC2)cc1 (centres undefined)
[A] inactive

[Q] Called result for COc1cc(CNC(=O)CCCC/C=C/C(C)C)ccc1OCc1cn(-c2ccc([N+](=O)[O-])cc2)nn1
[A] inactive

[Q] Answer briefly: the call reported for OB(O)c1ccsc1-c1nc2ccc3[nH]ncc3c2c2c1CCCC2 in this assay.
[A] inactive

----------
Test system: OVCAR-5 ovarian
assay_overview: NCI-60 one-dose screen, 48 h
conditions_used: 10 µM unless noted
The panel holds about 83,000 compounds, 20% with a hit somewhere; the sample as a whole holds those more often. Calls of active or inactive are those of the source. Rule for the calls: active = growth percent below 10; inactive = the rest.
Your reply should match one of these outcome classes. TRUE for active, FALSE for inactive

[Q] What is the recorded call for this compound in the test? COc1ccc2nc3cc(Cl)ccc3c(NCCCNCCC(C)O)c2c1 (centres undefined)
[A] TRUE

[Q] Given CCOc1nc(-c2ccccc2)cc2c(O)c(C(=O)N/N=C/c3ccc(N(C)C)cc3)[nH]c(=O)c12 , state the outcome it received in this test.
[A] FALSE

[Q] Field: outcome | Entry: CN1C(=O)/C(=C/c2ccc(C(=O)Nc3ncc(Cc4ccccc4Cl)s3)cc2)SC1=S
[A] FALSE

[Q] Could you kindly confirm the outcome this assay logged for CCN(c1cc(-c2ccc(CN3CCC(/C=C/S(=O)(=O)c4ccccc4)CC3)cc2)cc(C(=O)NCc2c(C)cc(C)[nH]c2=O)c1C)C1CCOCC1 ?
[A] FALSE

----------
Test system: SK-MEL-5 melanoma
assay_overview: NCI-60 one-dose screen, 48 h
conditions_used: 10 µM unless noted
About 83,000 compounds went through this panel and 20% of them were active in at least one assay; those are over-represented in the sample as a whole. Activity calls are given as the source filed them. How the source made its calls: active means growth percent below 10; inactive means the rest.
Valid outcomes are listed here; reply with one: t for active, f for inactive

[Q] Could you please tell me the result logged for Cc1ccc(S(=O)(=O)OC[C@@]2(C)CC[C@]3(C)CC[C@]4(C)C(=C3C2)C=C[C@@H]2[C@@]3(C)CCCNC(C)(C)[C@@H]3CC[C@]24C)cc1 in this assay?
[A] f

[Q] Called result for O=C(CC1(O)C(=O)Nc2ccc(Br)cc21)c1ccc(Cl)cc1 (configuration not stated)
[A] f

[Q] State the result this test recorded for CN1CCN(CCNC(=O)c2cccc(CN3c4cccc5c4C(=Cc4cccnc43)N(C)C5=O)c2)CC1 .
[A] f

[Q] Hi, do you know how COCCn1cc(-c2nc(-c3cn(CCOC)c4ncccc34)cs2)c2ccccc21 came out in this test?
[A] t

[Q] Any idea what this test logged for CC[C@@H]1NC(=O)[C@H]([C@H](O)[C@H](C)C/C=C/c2ccc(CN3C(=O)C(C)=C(C)C3=O)cc2)N(C)C(=O)[C@H](C(C)C)N(C)C(=O)[C@H](CC(C)C)N(C)C(=O)[C@H](CC(C)C)N(C)C(=O)[C@@H](C)NC(=O)[C@H](C)NC(=O)[C@H](CC(C)C)N(C)C(=O)[C@H](C(C)C)NC(=O)[C@H](CC(C)C)N(C)C(=O)CN(C)C1=O ?
[A] f

[Q] Dear colleague, could you share the recorded outcome for COC(=O)c1nc(-c2ccc(C)cc2)oc1S(=O)(=O)c1ccc(Cl)cc1 when you have a moment?
[A] f

[Q] Record request — test call for CCN(C(=O)N1CCN(c2cc3c(cc2F)c(=O)c(C(=O)O)cn3C2CC2)CC1)c1nc(-c2ccccc2)cs1
[A] f

[Q] Entry N#C/C(=N\Nc1ccc(Cl)cc1)C(=O)Nc1cc(-c2ccccc2)nn1-c1ccccc1 : call = ?
[A] t

[Q] Please state the recorded outcome for this compound: CC(=O)c1nn(-c2ccccc2)/c(=N/N=Cc2cn(-c3ccccc3)nc2-c2cc3ccccc3oc2=O)s1
[A] f

[Q] Dear colleague, could you share the recorded outcome for C=C1CCC2C3(C)COC(c4ccc(NC(C)=O)cc4)OC3CCC2(C)C1C/C=C1/C(=O)OCC1O (configuration not stated) when you have a moment?
[A] f

[Q] Would you mind telling me which call this test gave O=C(N=Nc1c(O)[nH]c2ccccc12)Nc1ccccc1Cl ?
[A] f

[Q] Would you mind telling me which call this test gave O=C(Nc1ccccc1C(=O)N/N=C(\c1ccccc1)c1ccccn1)c1ccccc1 ?
[A] t

[Q] Short answer needed: outcome of this test for CC1=C2[C@@H](CC1)[C@]1(C)O[C@@](C(C)C)(C[C@H]1OC(=O)CO)[C@H]2OC(=O)C1CC1c1ccccc1 (some centres not stated) ?
[A] f

[Q] Field: outcome | Entry: CCOC(=O)C1=C(C)NC(=O)NC1c1c(Cl)n(-c2ccccc2)c2ccccc12 (configuration not stated)
[A] f

[Q] Which outcome was assigned to COc1nc2ccc(C)cc2cc1/C=[N+](\[O-])c1ccccc1 in this test?
[A] f

[Q] For CN(C)CCCn1c2c(c3ccc(N4CCNCC4)cc3c1=O)C(=O)c1ccccc1-2 , what call appears in the results of this test?
[A] f

[Q] Outcome logged for COc1nc(=O)n(C2C=CC(=O)O2)cc1F (configuration not stated) in this assay:
[A] f
